Where these numbers come from: PubChem BioAssay (NCI)

System: COLO 205 colon
Test: NCI-60 one-dose screen, 48 h (100 = growth as untreated, 0 = no growth, -100 = all killed)
Conditions: 10 µM unless noted
Experimental: Cells are grown in 96 well plates and exposed to the test compound for 48 hours. Compounds are tested at a single concentration, which is 10^-5 M for most compounds. The reported endpoint is percent growth (GI% or GIPRCNT), where numbers from 0 - 100% represent growth inhibition, and numbers from -100% - 0 represent cell death. For example, a value of 40 represents 60% growth inhibition. A value of 0 means no net growth occurred over the course of the experiment. […]
This is part of a sample that, as a whole, favours compounds with a hit. Of some 83,000 tested, about 20% had one in any assay.
Outcome Measure: growth (%)
All answers are understood in %, so give the number only.

The cases that follow already have their growth on record.
NC[C@@H]1O[C@H](O[C@@H]2[C@@H](CO)OC(O[C@@H]3[C@@H](O)[C@H](N)C[C@H](N)[C@H]3OC3O[C@H](CN)[C@@H](O)[C@H](O)[C@H]3N)[C@@H]2O)[C@H](N)[C@@H](O)[C@@H]1O (stereo partly drawn); 115
CCn1cnc2c1c(=O)[nH]c(=O)n2CC1CCC(CNS(=O)(=O)c2ccc(OC3CCOCC3)c(F)c2)CC1 (stereo not drawn); 45.3
CC(=O)Oc1ccccc1C(=O)N=C1[Se]CCCN1C(=O)c1ccccc1OC(C)=O; 114
CN(C)CCN1CCN(c2ncccc2C2Nc3ccccc3-n3cccc32)CC1 (stereo not drawn); -48.6
COc1ccc2sc3c(NCCO)nc4ccccc4c3c(=O)c2c1; 111

Lookup result for COc1ccc(OC)c(/C=C2\Oc3cc(OCCN4CCC(Cc5ccccc5)CC4)ccc3C2=O)c1 ; measured growth: 25.3

Lookup result for Cc1cccc2c3c(sc12)C(c1ccc(Cl)cc1)C(C#N)=C(/N=C/c1ccc(Cl)cc1)O3 (stereo not drawn) ; measured growth: 0.544

Lookup result for O=C1c2cccc3cccc(c23)C(=O)N1N1C(=O)c2cccc3c(NC4CCCCC4)ccc(c23)C1=O ; measured growth: 103

Lookup result for CCOC(=O)Nc1ccc(C(=O)/C=C/c2ccccc2)cc1 ; measured growth: 127
